test: qHTS to identify inhibitors of the type 1 interferon - major histocompatibility complex class I in skeletal muscle: primary screen against the NCATS Mechanism Interrogation Plate v5.0 (MIPE) Libary (AID 1347411); details: iHSKM cells + IFN-b, HiBiT-tagged MHC-I luminescence, 24 h; series mostly up to 45.8 µM; further: nearly all actives have a fitted effect of over 65% in size
Inconclusive results are not listed. Calls of active or inactive are those of the source. The call rests on the fitted dose curve; in most records, active means well fitted inhibition curve with a large enough effect; inconclusive means small, poorly fitted or top-dose-only effect; inactive means no such curve, though single readings can be large or run the other way.
Just give me one of these, please: Yes (active), No (inactive)

Examples with answers:
> print(dat)
                           structure.string  assigned.class
1  C[C@@H]1CC[C@H]2[C@@H](C)C(=O)O[C@@H]3O[C@@]4(C)CC[C@@H]1[C@]32OO4              No
2      O=C(O)c1nn(Cc2ccc(Cl)cc2Cl)c2ccccc12              No
3  C[C@@H]1C[C@@H]([C@H](O)CC2CC(=O)NC(=O)C2)C(=O)[C@@H](C)C1             Yes

Now take the following molecule into account.
[in] Hi, sorry to bother you, what did the test record for `C[C@]12CC[C@H](O)CC1=CC[C@@H]1[C@@H]2CC[C@]2(C)C(=O)CC[C@@H]12` ?
[out] No

====

max response overview
tested on: KB-3-1; assay: Cytotoxic Profiling of Annotated Libraries Using Quantitative High-Throughput Screening (AID 1296008); settings: Five cell lines viability, CellTiter-Glo ATP luminescence, 48-72 h; active compounds read low; further: on the % scale 0 is the no-effect control and ±100 the full control effect; nearly all actives have a fitted effect of over 60% in size
Inconclusive results are not listed.
Write the number in % without appending the unit.

> print(dat)
                                   compound  quantity.name  measurement.unit  quantitative.result
1  CCC(OC(C)=O)C(CC(C)NC)(c1ccccc1)c1ccccc1 (configuration not stated)   max response                 %                -22.1
2  Clc1ccc(C(OCCN2CCCCC2)c2ccccc2)cc1 (configuration not stated)   max response                 %                -23.9
3                      CCNc1nc(Cl)nc(NCC)n1   max response                 %                -15.4
4                  C[C@H]1CNCCc2ccc(Cl)cc21   max response                 %                -14.3
5  CN1CCc2cc(Cl)c(O)cc2[C@H]2c3ccccc3CC[C@@H]21   max response                 %                   18

[in] # lookup: max response of O=C(NC(=O)c1c(F)cccc1F)Nc1cc(Cl)c(OC(F)(F)C(F)C(F)(F)F)cc1Cl (configuration not stated)
[out] 8.21

[in] What max response value was documented for this compound, COc1cc(N)c(Cl)cc1C(=O)NC1CN2CCC1CC2 (configuration not stated) ?
[out] 8.72

[in] I'd like to know its max response. The compound in question is COc1cc(CC(C)N)cc2c1OCO2 (configuration not stated)
[out] -6.39

[in] Fill blank: measured max response of the compound `C[C@@H]1CC[C@H]2[C@@H](C)C(=O)O[C@@H]3O[C@@]4(C)CC[C@@H]1[C@]32OO4` is ____.
[out] -14.6

[in] Value lookup for max response; key = CCCCC1C(=O)NC(=O)N(C2CCCCC2)C1=O (configuration not stated)
[out] 2.39

[in] I would be grateful if you could share the reported max response for CNC(=O)NC(O)C(Cl)(Cl)Cl (configuration not stated) .
[out] 2.2

[in] For the compound `CCc1cc(OC)c(C[C@H](C)N)cc1OC` , what max response is on record?
[out] -8.43

====

tested on: CP203; test: qHTS profiling for inhibitors of Plasmodium falciparum proliferation (AID 504749); further: nearly all actives have a fitted effect of over 60% in size; conditions: P. falciparum in erythrocytes, SYBR Green DNA, 72 h; series mostly up to 28.7 µM
Results filed as inconclusive are left out. Active and inactive are the calls of the source. Calls follow the shape of the dose curve; as a rule, active = well fitted inhibition curve with a large enough effect; inconclusive = small, poorly fitted or top-dose-only effect; inactive = flat fitted curve, though single readings scatter.
quantity_name: outcome

Here is how some molecules turned out for outcome.
> print(dat)
                                   molecule    result
1  O=C(NC(=O)c1c(F)cccc1F)Nc1cc(Cl)c(OC(F)(F)C(F)C(F)(F)F)cc1Cl (configuration not stated)  inactive
2  COP(=O)(OC)C(O)C(Cl)(Cl)Cl (configuration not stated)  inactive
3      Cc1ccc(N=CN(C)C=Nc2ccc(C)cc2C)c(C)c1  inactive
4                       Oc1c(Br)cc(Br)cc1Br  inactive
5            CCCCCCCCC(=O)NCc1ccc(O)c(OC)c1  inactive

[in] Requested read-out: outcome. Entry: `OC(c1ccccc1)(c1ccccc1)C1CCNCC1`
[out] inactive

[in] Entry under review: `CCNc1nc(Cl)nc(NCC)n1` . Reported outcome?
[out] inactive

====

assay: Cell Viability - LYMP2-021 (AID 974); conditions: LYMP2-021 lymphoblastoid cells viability; series mostly up to 92.2 µM;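 further: compound exposure lasts 24 hours at 37 °C; nearly all actives have a fitted effect of over 55% in size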
Inconclusive results are not listed. Active and inactive are the calls of the source. Calls come from the whole dose curve; as a rule, active = well fitted cell-killing curve with a large enough effect; inconclusive = small, poorly fitted or top-dose-only effect; inactive = flat fitted curve, though single readings scatter.
Form entry, call: pick from TRUE for active, FALSE for inactive

Consider the worked cases shown below.
> print(dat)
              structure.string  assigned.class
1       CN(C)C(=S)SSC(=S)N(C)C            TRUE
2  Oc1ccc(Cl)cc1Sc1cc(Cl)ccc1O            TRUE
3       O=C(CCl)c1ccc(Cl)cc1Cl            TRUE
4        COP(=O)(OC)OC=C(Cl)Cl           FALSE
5       CNC(=O)Oc1cccc2ccccc12           FALSE

[in] Which result was noted for this compound in the test: `CCCCCCCCCCCC[N+](C)(C)CCOc1ccccc1`
[out] TRUE

[in] Give the logged outcome of this assay for the following compound: `Oc1c(Br)cc(Br)cc1Br`
[out] FALSE

====

test system: CP191; experiment: qHTS profiling for inhibitors of Plasmodium falciparum proliferation (AID 504749); further: nearly all actives have a fitted effect of over 60% in size; conditions: P. falciparum in erythrocytes, SYBR Green DNA, 72 h; series mostly up to 28.7 µM
Records with an inconclusive call do not appear. Activity calls are given as the source filed them. The call rests on the fitted dose curve; in most records, active means well fitted inhibition curve with a large enough effect; inconclusive means small, poorly fitted or top-dose-only effect; inactive means flat fitted curve, though single readings scatter.
Please reply with one of these outcomes: Yes = active, No = inactive

> print(dat)
                                   compound  assigned.class
1             CCS(=O)(=O)C(C)(C)S(=O)(=O)CC              No
2                      CCNc1nc(Cl)nc(NCC)n1              No
3  O=C(CCCN1CCC(n2c(=O)[nH]c3ccccc32)CC1)c1ccc(F)cc1             Yes

[in] Recorded call for `O=C(O)c1nn(Cc2ccc(Cl)cc2Cl)c2ccccc12` ?
[out] No

[in] Short answer needed: outcome of this test for CC(C)C(Br)C(=O)NC(N)=O (stereo not drawn) ?
[out] No

[in] Per the assay record, what outcome was assigned to `CN1C[C@@H](NS(=O)(=O)N(C)C)C[C@@H]2c3cccc4c3c(cn4C)C[C@H]21` ?
[out] No

[in] For `OC(c1ccccc1)(c1ccccc1)C1CCNCC1` , which call appears in the assay record?
[out] No

[in] # fetch the recorded call for `c1cc2c(c(N3CCNCC3)c1)OCCO2` here
[out] No

[in] Which outcome was entered for the compound `CCC(=O)O[C@H]1CC[C@H]2[C@@H]3CCC4=CC(=O)CC[C@]4(C)[C@H]3CC[C@]12C` in this test?
[out] No

[in] Can you look up the reported call for `Clc1ccc(CO/N=C(\Cn2ccnc2)c2ccc(Cl)cc2Cl)c(Cl)c1` for me?
[out] Yes

[in] How was `CC(C)[N+](C)(CCC(C(N)=O)(c1ccccc1)c1ccccc1)C(C)C` classified in this test?
[out] No

[in] # fetch the recorded call for `C#C[C@]1(O)CC[C@H]2[C@@H]3CCC4=CC(=O)CCC4=C3C=C[C@@]21CC` here
[out] Yes

[in] Hi team, can someone confirm the assay call for `CCCCCCCCCCCC[N+](C)(C)CCOc1ccccc1` ?
[out] Yes

[in] Dear all, I need the recorded test outcome for `C[C@H]1C(=O)O[C@@H]2CCN3CC=C(COC(=O)[C@](C)(O)[C@]1(C)O)[C@H]23` , thank you.
[out] No

[in] Query: recorded result category for `CC(C)(O)C(Cl)(Cl)Cl` in this test
[out] Yes

[in] Returns: the outcome recorded for `COc1ccc(CN2CCNCC2)c(OC)c1OC` in this assay.
[out] No

[in] For `COP(=O)(OC)OC=C(Cl)Cl` , what call appears in the results of this test?
[out] No

[in] Recorded test call requested for `Oc1c(Br)cc(Br)cc1Br`
[out] No
